- PROCEDURE_TEXT: inhibitors of E-selectin induction by TNFa, primary screen, imaging, HUVEC, immunofluorescence, MLSMR starter and 10KST1 sets (AID 487);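 note: signal is fraction of cell area covered by stained E-selectin grains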
- CONDITION_INFO: HUVEC TNFalpha-induced E-selectin immunofluorescence imaging, at 2 µM; stronger effect = higher value
Returns Condition met if the recorded inhibition is greater than or equal to -10%, and Condition not met otherwise.

Below, 3 molecules whose answers are already recorded.
| MOLECULE | ASSIGNED_CLASS |
| --- | --- |
| C=CCOc1ccccc1/C=c1\sc2nc(=O)c(C)nn2c1=O | Condition not met |
| Cc1ccc(Cn2c(SCCN3CCCCC3)nc3c2c(=O)[nH]c(=O)n3C)cc1 | Condition met |
| C=CCSc1nnc(NC(=O)c2ccc(S(=O)(=O)NCC3CCCO3)cc2)s1 (centres undefined) | Condition not met |

// query hey, is inhibition for this one >= -10%? Oc1ccc(-c2n[nH]c(=S)n2Cc2ccccc2)cc1
// result Condition not met

// query hey, is inhibition for this one >= -10%? Cc1cc(O)ccc1-c1cnc2ccccc2n1
// result Condition not met

// query hey, is inhibition for this one >= -10%? CCCCc1nc(N2CCOCC2)c(C#N)c2c1COC(C)(C)C2
// result Condition not met

// query hey, is inhibition for this one >= -10%? O=C(c1cnc2n(c1=O)CCS2)N1CCc2ccccc21
// result Condition not met

// query hey, is inhibition for this one >= -10%? CC(C)(C)C(=O)Cn1c[n+](N)cn1
// result Condition met

// query hey, is inhibition for this one >= -10%? CCOC(=O)CSc1nnc(NC(=O)c2cccc(S(=O)(=O)N3CCCCC3)c2)s1
// result Condition met

// query hey, is inhibition for this one >= -10%? CCOC(=O)C(CCc1nnc(N)s1)C(=O)OCC
// result Condition not met

// query hey, is inhibition for this one >= -10%? O=C(Nc1ccc2c(c1)nc1n2CCN(Cc2ccccc2)C1)c1cccs1
// result Condition met

// query hey, is inhibition for this one >= -10%? CCC1C(=O)N=C(SCC(=O)Nc2cccc3ccccc23)NC1=O (centres undefined)
// result Condition not met

// query hey, is inhibition for this one >= -10%? O=C(CSc1nc2ccsc2c(=O)n1NC(=O)c1ccccc1)Nc1nccs1
// result Condition not met

// query hey, is inhibition for this one >= -10%? CCCC(=O)N(c1ccc2oc(=O)sc2c1)S(=O)(=O)c1ccccc1
// result Condition not met

// query hey, is inhibition for this one >= -10%? Cc1ccc2c(C)nc(NC3=NCN(C(C)C)CN3)nc2c1
// result Condition not met

// query hey, is inhibition for this one >= -10%? CC(=O)N(C(C)=O)c1ncc2c([nH]c3ccccc32)c1C#N
// result Condition met

----------
- MEASUREMENT_TARGET: Muscarinic acetylcholine receptor M4 (Homo sapiens) (UniProt P08173)
- Sequence (P08173 whole entry, looked up): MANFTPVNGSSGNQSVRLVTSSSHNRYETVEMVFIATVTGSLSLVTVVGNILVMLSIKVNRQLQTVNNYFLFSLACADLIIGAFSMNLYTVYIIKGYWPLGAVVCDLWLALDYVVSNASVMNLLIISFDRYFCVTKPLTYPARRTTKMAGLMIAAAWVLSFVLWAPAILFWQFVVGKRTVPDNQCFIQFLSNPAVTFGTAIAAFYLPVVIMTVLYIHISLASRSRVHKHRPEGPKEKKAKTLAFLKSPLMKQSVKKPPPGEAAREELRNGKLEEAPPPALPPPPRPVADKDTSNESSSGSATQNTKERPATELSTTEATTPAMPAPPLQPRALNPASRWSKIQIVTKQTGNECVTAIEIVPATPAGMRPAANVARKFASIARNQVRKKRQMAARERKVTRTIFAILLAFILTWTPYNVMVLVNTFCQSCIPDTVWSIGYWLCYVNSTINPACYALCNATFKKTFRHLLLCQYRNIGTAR
- PROCEDURE_TEXT: compounds altering M4/GIRK thallium flux, either direction, primary screen, M4 allosteric agonist project, cell-based, HEK293 M4/GIRK, BTC-AM (AID 625);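 note: thallium influx through GIRK channels coupled to M4 in HEK293 cells with BTC-AM dye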
- CONDITION_INFO: at 10 µM, actives lie on both sides
The source made the active and inactive calls.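 How the source made its calls: active means fluorescence slope after compound addition differing from the mean of all tested samples at 99.7% confidence, mostly higher but some lower; inactive means the rest.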
The reply should be one of these categories: y = active, n = inactive

Below, 5 compounds whose answers are already recorded.
| COMPOUND | ASSIGNED_CLASS |
| --- | --- |
| Clc1ccc(-n2ncc3c(N4CCCC4)ncnc32)cc1 | n |
| CN=C(c1ccco1)n1c(=S)nc(-c2ccco2)n(C)c1=S | n |
| O=c1c(-c2ccc(Cl)cc2)[n+]([O-])c2ccccc2n1O | y |
| Cc1cc(=O)oc(C)c1C(=O)n1nc(C)c2c1C[C@@H]1[C@H]2C1(C)C | n |
| COc1cccc(C2C(C(=O)c3sc(C)nc3C)=C(O)C(=O)N2CCN2CCOCC2)c1OC (centres undefined) | n |

// query Please indicate how the test categorized CC1(C)Cc2c(c(-c3ccccc3Cl)[nH]c(=O)c2C#N)CO1 .
// result n

// query Please indicate how the test categorized O=C(O)c1ccnc(C(=O)O)c1 .
// result n

// query Please indicate how the test categorized CCOC(=O)N1CCN(C2OC(=O)c3ccccc32)CC1 (centres undefined) .
// result n

// query Please indicate how the test categorized c1ccc(-n2ncc3c(N4CCCC4)ncnc32)cc1 .
// result n

// query Please indicate how the test categorized CCOC(=O)c1c(CN2CCN(CCO)CC2)n(C)c2cc(Br)c(OC)cc12 .
// result n

// query Please indicate how the test categorized C=C(C)CSc1nnc2n(C)c(=O)c3c4c(sc3n12)CCC4 .
// result n

// query Please indicate how the test categorized COc1ccc(CN(C#N)c2nc(SC)nc(N(C)C)n2)cc1 .
// result n

// query Please indicate how the test categorized CC(=O)/C(C#N)=C1\NC(=O)C(Cc2ccccc2)S1 (centres undefined) .
// result n

// query Please indicate how the test categorized COc1ccccc1C1/C(=C(/O)c2ccc(OC(C)C)cc2)C(=O)C(=O)N1c1cc(C)on1 (centres undefined) .
// result n

// query Please indicate how the test categorized Cc1cc(O)ccc1-c1cnc2ccccc2n1 .
// result n

----------
- PROCEDURE_TEXT: inhibitors of Chlamydomonas gravitaxis, primary screen, whole organism, Chlamydomonas reinhardtii, WT vs cilia-less mutant, absorbance, 96-well (AID 463189);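 note: 0% = wild type cc124 cells in DMSO and 100% = ciliumless bld1 mutant cells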
- CONDITION_INFO: OD600 absorbance, 2 days, at 10 µM
Calls of active or inactive are those of the source.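 How the source made its calls: active means inhibition at or above 50% relative to wild type and mutant plate controls; inactive means inhibition below 50%.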
The reply should be one of these categories: Y = active, N = inactive

| COMPOUND | ASSIGNED_CLASS |
| --- | --- |
| CSc1nc2[nH]c3c(c2c2nnnn12)CCCC3 | Y |
| CCN(CC)CCN1C(=O)C(O)=C(C(=O)c2cc3ccccc3o2)C1c1cccnc1 (stereo unspecified) | N |
| COc1ccccc1NC(=O)c1c(C)cc(=O)oc1C | N |
| CCN(CC)Cc1c(O)ccc2c(C)c(CC(=O)OC)c(=O)oc12 | N |
| Brc1ccc2c(c1)CNc1c(ncnc1N1CCOCC1)O2 | N |
| N#Cc1nc(COc2ccccc2F)oc1NCCCn1ccnc1 | N |
| COc1cccc(C(=O)c2sc(NC(C)C)nc2N)c1 | N |
| CC(C)c1ccc(O)c(N)c1 | N |

// query Please indicate how the test categorized COc1ccc(OC)c(C2/C(=C(\O)c3ccc(OC)c(Cl)c3)C(=O)C(=O)N2CCN(C)C)c1 (stereo unspecified) .
// result N

// query Please indicate how the test categorized Cc1cccc(C)c1OCC(=O)Nc1cccc(-c2nnc(-c3ccccc3)o2)c1 .
// result N

// query Please indicate how the test categorized COc1ccc(C2NC3=C(CCC3)C3(C#N)C(OC)(OC)N=C(N)C23C#N)cc1 (stereo unspecified) .
// result N

----------
- PROCEDURE_TEXT: DUSP6 inhibitors restoring Erk phosphorylation by chemical complementation, primary imaging in DUSP6-transfected HeLa (AID 609)
- CONDITION_INFO: HeLa MKP-3 transfected, phospho-Erk imaging KS statistic; measured here: nuclear pErk red intensity z-score; at 10 µM; stronger effect = higher value; cells stimulated with TPA for 15 min
The recorded z-score of each item maps onto one of these classes: lower = under -0.6, middle = from -0.6 up to 0.6, upper = 0.6 and over

Below, 4 compounds whose answers are already recorded.
| COMPOUND | ASSIGNED_CLASS |
| --- | --- |
| Cc1ccc(Cn2ncc3c(N4CCN(Cc5ccc(Cl)cc5)CC4)ncnc32)cc1 | upper |
| Cc1ccccc1COc1ccc(/C(O)=C2/C(=O)C(=O)N(CCCn3ccnc3)C2c2ccco2)cc1 (stereo unspecified) | upper |
| CC1(C)CC(=O)C(C=Nc2ccc(Cl)cn2)=C(O)C1 | upper |
| Cc1c(Cl)cccc1N1C(=O)C2ON(c3ccccc3)C(c3cccnc3)C2C1=O (stereo unspecified) | lower |

// query Which category fits this record: COc1ccc(C2C(C#N)=C(N)Oc3cc(C)n(CCN4CCOCC4)c(=O)c32)cc1OC (stereo unspecified)
// result lower

// query Which category fits this record: Cc1cccc(N2CC(=O)N(c3cccc(C)c3)CC2=O)c1
// result middle

// query Which category fits this record: COc1ccccc1NC(=O)c1c(C)cc(=O)oc1C
// result middle

// query Which category fits this record: COc1ccc(-c2nn(C)c(=O)c3ccccc23)cc1NS(C)(=O)=O
// result lower

// query Which category fits this record: Cc1ccc(-n2ncc3c(N4CCC(C(N)=O)CC4)ncnc32)c(C)c1
// result middle

----------
- PROCEDURE_TEXT: inhibitors of poly I:C-induced TLR3 signaling, primary screen, cell-based, poly I:C stimulus, luciferase, 10K MLSCN set (AID 602277)
- CONDITION_INFO: HEK293-TLR3 RL24 IRF3 luciferase reporter, at 10 µM, stronger effect = higher value
EXPERIMENTAL_ENDPOINT: inhibition (%)
Express your answer in %, writing the number without its unit.

| COMPOUND | EXPERIMENTAL_ENDPOINT | MEASURED |
| --- | --- | --- |
| NC(=O)c1ccccc1NC(=O)CN1CCOCC1 | inhibition | 20.7 |
| CCOC(=O)N1CCN(S(=O)(=O)c2cc(Cl)ccc2Cl)CC1 | inhibition | 18.5 |
| Cc1ccc(Cn2ccc(NC(=O)c3cc(-c4cccs4)on3)n2)cc1 | inhibition | -7.39 |
| COc1ccc(NC(=O)C(C)NS(=O)(=O)c2ccccc2)cc1Cl (stereo unspecified) | inhibition | 17.6 |
| CC(=O)C1=C(C)NC(C)=C(C(C)=O)C1c1cccs1 | inhibition | 39.4 |
| Cc1nnc(SCC(=O)NCCN2C(=O)CSC2=O)s1 | inhibition | 19.5 |
| CCOC(=O)c1sc(NC(=O)CSc2n[nH]c(-c3ccccc3)n2)c(C#N)c1C | inhibition | -25.2 |
| CC1=C(C(=O)Nc2ccccc2)C(c2ccccn2)n2nc(CCCO)nc2N1 (stereo unspecified) | inhibition | 29.7 |
| CCOC(=O)Cn1c(CCC(=O)O)ccc1-c1ccc(F)cc1 | inhibition | 39.4 |
| O=C(CNc1ccc(Oc2ccccc2)cc1)N1CCOCC1 | inhibition | 3.08 |

# context switch: different compound, same inhibition
Lab note: CCN(CC)S(=O)(=O)c1ccc(NC2CCCc3ccccc32)nc1 (stereo unspecified) gave inhibition of 17.1
